- measured target: Protein farnesyltransferase (Homo sapiens, UniProt P49354+P49356)
- experimental details: Inhibition of rate of incorporation of [3H]FPP into recombinant Ras-CVIM by human farnesyltransferase.
pIC50: −log10 of the molar value.
observable: pIC50

- smiles input: "N#Cc1ccc(Cn2ccnc2)cc1Oc1cccc(NC(=O)c2ccccc2)c1"
  pIC50: 7.42
- smiles input: "N#Cc1ccc(Cn2ccnc2)cc1Oc1cccc(Cl)c1"
  pIC50: 7.28
- smiles input: "N#Cc1ccc(Cn2ccnc2)cc1Oc1ccccc1Cl"
  pIC50: 7.39
- smiles input: "CC(C)(C)c1cccc(Oc2cc(Cn3ccnc3)ccc2C#N)c1"
  pIC50: 7.57
- smiles input: "N#Cc1ccc(Cn2ccnc2)cc1Oc1cccc(C(=O)Nc2ccccc2)c1"
  pIC50: 7.42

P: N#Cc1ccc(Cn2ccnc2)cc1OCCCCc1ccccc1
Q: N#Cc1ccc(Cn2ccnc2)cc1OCCc1ccc(-c2ccccc2)cc1
Query: Name the one with the greater pIC50 value, either P or Q as given. Refer to your chosen entry by its label in the reply.
Response: Q
(Q: 7.07, P: 6.36)

A: N#Cc1ccc(Cn2ccnc2)cc1S(=O)(=O)c1ccc(Cl)cc1Cl
B: N#Cc1ccc(Cn2ccnc2)cc1Oc1cccc(F)c1
C: CC(=O)c1cccc(Oc2cc(Cn3ccnc3)ccc2C#N)c1
D: N#Cc1ccc(Cn2ccnc2)cc1Oc1ccc(Cl)c(Cl)c1
Query: Ascending by pIC50, please: list the compounds accordingly. Put the labels in the requested order and write them down.
Response: A, B, C, D

###

- measured target: Geranylgeranyl transferase type I (Homo sapiens, UniProt P49354+P53609)
- experimental details: Inhibition of rate of incorporation of [3H]GGPP into a biotinylated peptide corresponding to C-terminus of human Ki-Ras by human geranylgeranyl-transferase type I.
observable: IC50 (µM)

- compound: "N#Cc1ccc(Cn2ccnc2)cc1OCCc1ccccc1"
  measured target: "Geranylgeranyl transferase type I (Homo sapiens, UniProt P49354+P53609)"
  measure unit: "µM"
  IC50: 7

a: N#Cc1ccc(Cn2ccnc2)cc1OCc1ccccc1
b: N#Cc1ccc(Cn2ccnc2)cc1OCCc1ccc(-c2ccccc2)cc1
c: N#Cc1ccc(Cn2ccnc2)cc1Oc1cccc(Nc2ccccc2)c1
d: N#Cc1ccc(Cn2ccnc2)cc1OCCCc1ccccc1
e: N#Cc1ccc(Cn2ccnc2)cc1Oc1ccc(Cl)cc1
Query: Sort these compounds on IC50 so the largest reading comes first. // rank by listing labels in the order requested
Response: b, a, d, e, c

1: N#Cc1cccc(Oc2cc(Cn3ccnc3)ccc2C#N)c1
2: N#Cc1ccc(Cn2ccnc2)cc1Oc1cccc(Br)c1
3: N#Cc1ccc(Cn2ccnc2)cc1Oc1ccccc1-c1ccccc1
Query: # desc sort on IC50 across 3 compounds // ordering of labels required in reply
Response: 1, 2, 3

###

- measured target: Protein farnesyltransferase (Rattus norvegicus, UniProt Q02293+Q04631)
- experimental details: Displacement of radiolabeled FTI from Farnesyltransferase in cultured v-Ha-ras-transformed RAT1 cells
observable: IC50 (nM)

Worked examples, 2 compounds total:
- compound: "CCC1(c2cccc(Oc3cc(Cn4ccnc4)ccc3C#N)c2)CCCCN(C)C1=O (centres undefined)"
  IC50 / nM: 4.9
- compound: "N#Cc1ccc(Cn2ccnc2)cc1Sc1ccc(Cl)cc1Cl"
  IC50 / nM: 96

I: COc1cccc(Oc2cc(Cn3ccnc3)ccc2C#N)c1OC
II: N#Cc1ccc(Cn2ccnc2)cc1Oc1ccc(Cl)cc1Cl
Query: So which one has the bigger IC50 here, I or II ? Let me know the label of the one you choose.
Response: II
(II: 260 nM, I: 14 nM)

###

- measured target: Protein farnesyltransferase (Homo sapiens, UniProt P49354+P49356)
- experimental details: Inhibition of rate of incorporation of [3H]FPP into recombinant Ras-CVIM by human farnesyltransferase.
observable: IC50 (nM)

Check out these entries, answers already filled in.
- compound: "N#Cc1ccc(Cn2ccnc2)cc1Oc1cccc(Br)c1"
  assay result: 38
- compound: "N#Cc1ccc(Cn2ccnc2)cc1Oc1cccc(-c2ccccc2)c1"
  assay result: 9.6
- compound: "COc1ccc(OC)c(Oc2cc(Cn3ccnc3)ccc2C#N)c1"
  assay result: 100
- compound: "N#Cc1ccc(Cn2ccnc2)cc1Oc1ccc(Cl)cc1"
  assay result: 38
- compound: "Cc1ncn(Cc2ccc(C#N)cc2)c1CN1CC(=O)N(c2cccc(Cl)c2)CC1CCS(C)(=O)=O (centres undefined)"
  assay result: 475
- compound: "N#Cc1cccc(Oc2cc(Cn3ccnc3)ccc2C#N)c1"
  assay result: 130
- compound: "N#Cc1ccc(Cn2ccnc2)cc1Oc1cccc(C(=O)c2ccccc2)c1"
  assay result: 13
- compound: "N#Cc1ccc(Cn2ccnc2)cc1[S+]([O-])c1ccc(Cl)cc1Cl (centres undefined)"
  assay result: 390
- compound: "N#Cc1ccc(Cn2ccnc2)cc1Oc1cccc(Oc2ccccc2)c1"
  assay result: 14
- compound: "COc1ccccc1Oc1cc(Cn2ccnc2)ccc1C#N"
  assay result: 340

a: N#Cc1ccc(Cn2ccnc2)cc1Oc1ccccc1-c1ccccc1
b: COc1ccc(Oc2cc(Cn3ccnc3)ccc2C#N)cc1
Query: IC50 comparison. Which is larger, a or b ? Answer = label.
Response: b
(b: 290 nM, a: 110 nM)

I: COc1cccc(Oc2cc(Cn3ccnc3)ccc2C#N)c1OC
II: N#Cc1ccc(Cn2ccnc2)cc1OCCCc1ccccc1
Query: Task for the reader: decide whether I or II has the larger IC50. Give the chosen item's label as your response.
Response: II
(II: 200 nM, I: 1 nM)

a: N#Cc1ccc(Cn2ccnc2)cc1Oc1cccc2ccccc12
b: N#Cc1ccc(Cn2ccnc2)cc1Oc1cccc(Nc2ccccc2)c1
c: N#Cc1ccc(Cn2ccnc2)cc1Oc1ccc2ccccc2c1
d: N#Cc1ccc(Cn2ccnc2)cc1OCCc1ccccc1
Query: Arrange the 4 entries by IC50 so the values rise. List each label, following the requested order.
Response: c, b, a, d
(c: 1.1 nM, b: 17 nM, a: 150 nM, d: 860 nM)

###

- measured target: Geranylgeranyl transferase type I (Homo sapiens, UniProt P49354+P53609)
- experimental details: Inhibition of rate of incorporation of [3H]GGPP into a biotinylated peptide corresponding to C-terminus of human Ki-Ras by human geranylgeranyl-transferase type I.
pIC50: −log10 of the molar value.
observable: pIC50

Example results:
- molecule: "N#Cc1ccc(Cn2ccnc2)cc1Sc1ccc(Cl)cc1Cl"
  measured target: "Geranylgeranyl transferase type I (Homo sapiens, UniProt P49354+P53609)"
  pIC50: 7.64
- molecule: "N#Cc1ccc(Cn2ccnc2)cc1Oc1ccc(-c2ccccc2)cc1"
  measured target: "Geranylgeranyl transferase type I (Homo sapiens, UniProt P49354+P53609)"
  pIC50: 5.89
- molecule: "CCC1(c2cccc(Oc3cc(Cn4ccnc4)ccc3C#N)c2)CCCCN(C)C1=O (centres undefined)"
  measured target: "Geranylgeranyl transferase type I (Homo sapiens, UniProt P49354+P53609)"
  pIC50: 8.15
- molecule: "N#Cc1ccc(Cn2ccnc2)cc1OCCCCc1ccccc1"
  measured target: "Geranylgeranyl transferase type I (Homo sapiens, UniProt P49354+P53609)"
  pIC50: 6.42
- molecule: "N#Cc1ccc(Cn2ccnc2)cc1Oc1cccc(-c2ccccc2)c1"
  measured target: "Geranylgeranyl transferase type I (Homo sapiens, UniProt P49354+P53609)"
  pIC50: 6.28
- molecule: "COc1ccccc1Oc1cc(Cn2ccnc2)ccc1C#N"
  measured target: "Geranylgeranyl transferase type I (Homo sapiens, UniProt P49354+P53609)"
  pIC50: 4.55

a: CC(=O)c1cccc(Oc2cc(Cn3ccnc3)ccc2C#N)c1
b: N#Cc1ccc(Cn2ccnc2)cc1Oc1ccccc1
Query: Returns: the argument ( a or b ) having the larger pIC50. Record your answer as the label of the chosen record.
Response: b

P: CC(C)(C)c1cccc(Oc2cc(Cn3ccnc3)ccc2C#N)c1
Q: N#Cc1ccc(Cn2ccnc2)cc1Oc1cccc(F)c1
Query: API: POST /compare with P and Q ; response names the item with higher pIC50. Lab note: record the label of whichever item you select.
Response: P

P: N#Cc1ccc(Cn2ccnc2)cc1Oc1ccc2ccccc2c1
Q: N#Cc1ccc(Cn2ccnc2)cc1Oc1cccc(NC(=O)c2ccccc2)c1
Query: Identify the entry with the larger pIC50. Options: P and Q Mark your selection by writing its label.
Response: P

a: C#Cc1cccc(Oc2cc(Cn3ccnc3)ccc2C#N)c1
b: N#Cc1ccc(Cn2ccnc2)cc1Oc1ccccc1Cl
c: N#Cc1ccc(Cn2ccnc2)cc1Oc1ccc(Cl)cc1Cl
Query: Would you mind ranking these molecules by ascending pIC50? The reply should contain the labels ordered as requested.
Response: a, b, c
(a: 5.59, b: 5.96, c: 6.55)

a: COc1cccc(Oc2cc(Cn3ccnc3)ccc2C#N)c1
b: N#Cc1ccc(Cn2ccnc2)cc1Oc1cccc(Oc2ccccc2)c1
Query: So which one has the bigger pIC50 here, a or b ? Pick one and reply with its label.
Response: b

a: N#Cc1ccc(Cn2ccnc2)cc1Oc1ccc(Cl)c(Cl)c1
b: COc1ccc(OC)c(Oc2cc(Cn3ccnc3)ccc2C#N)c1
Query: Form: Entry with minimum pIC50 (choose one): a / b Respond using the label that marks the chosen record.
Response: b
(b: 4.74, a: 5.92)

1: N#Cc1ccc(Cn2ccnc2)cc1Oc1cccc(C(=O)c2ccccc2)c1
2: COc1ccc(Oc2cc(Cn3ccnc3)ccc2C#N)cc1
Query: So which one has the bigger pIC50 here, 1 or 2 ? Reply with the label of the item you choose.
Response: 1

P: N#Cc1ccc(Cn2ccnc2)cc1Oc1cccc(C(=O)Nc2ccccc2)c1
Q: N#Cc1ccc(Cn2ccnc2)cc1Oc1cccc(Cc2ccccc2)c1
Query: Kindly identify the item with the lower pIC50 figure among these two: P and Q Identify your selection by its label.
Response: P
